- Tested on: murine neural precursor cells (neurosphere cultures)
- experimentSummary: HTS of LOPAC library against secondary neurosphere cultures, MTT proliferation assay at 3 μM, day 7 (z score, P value)
- Assay type: cell-based, mouse
- measurementContext: LOPAC library screen, 3 μM, MTT, secondary neurosphere cultures, day 7
Where a name gives a salt, the structure may show the parent alone.
Decide by Z Score: equal to or exceeding -2 means satisfied, less means not satisfied.

compound	labelValue
CC(=O)N[C@@H](CS)C(=O)O [N-Acetyl-L-Cysteine]	satisfied
O=c1[nH]c2ccccc2n1CCCN1CCC(n2c(=O)[nH]c3cc(Cl)ccc32)CC1 [Domperidone]	satisfied
Cl.O[Si](CCCN1CCCCC1)(c1ccc(F)cc1)C1CCCCC1 (centres unmarked)	satisfied
CC[C@@]1(O)C(=O)OCc2c1cc1n(c2=O)Cc2cc3ccccc3nc2-1 [(S)-(+)-Camptothecin]	not satisfied
CN(C)CCCC1(c2ccc(F)cc2)OCc2cc(C#N)ccc21 (centres unmarked) [Citalopram hydrobromide]	satisfied
COc1cc(C=C(C#N)C#N)cc(O)c1O [Tyrphostin AG 34]	not satisfied
O=C(NCC1CCCCN1)c1cc(OCC(F)(F)F)ccc1OCC(F)(F)F (centres unmarked) [Flecainide acetate]	satisfied
CC1=C(C(=O)O)N2C(=O)[C@@H](NC(=O)[C@H](N)c3ccccc3)[C@H]2SC1 [Cephalexin hydrate]	not satisfied
CN(Cc1cnc2nc(N)nc(N)c2n1)c1ccc(C(=O)N[C@@H](CCC(=O)O)C(=O)O)cc1 [Methotrexate]	not satisfied
CN(C)c1nc(N(C)C)nc(N(C)C)n1 [Altretamine]	satisfied
O=C(O)Cc1c[nH]c2ccc(O)cc12 [5-Hydroxyindolacetic acid]	satisfied
CN(C)CCC(c1ccc(Br)cc1)c1ccccn1.O=C(O)/C=C\C(=O)O (single isomer, unassigned; (+)) [(+)-Brompheniramine maleate]	not satisfied
CN1CCN(c2nc3cc(C(F)(F)F)ccc3n3cccc23)CC1.O=C(O)/C=C\C(=O)O [CGS-12066A (40), reference compound]	not satisfied
Cc1cc(N)c2ccccc2[n+]1CCCCCCCCCCCCCC[n+]1c(C)cc(N)c2ccccc21 [Dequalinium analog, C-14 linker]	not satisfied
Cc1cc(C(C)(C)C)c(O)c(C)c1CC1=NCCN1 [Oxymetazoline hydrochloride]	not satisfied
CCN(CC)CCCC(C)Nc1c2ccc(Cl)cc2nc2ccc(OC)cc12 (centres unmarked) [Quinacrine dihydrochloride]	not satisfied
Cc1c2ccncc2c(C)c2c1[nH]c1ccccc12 [Ellipticine]	not satisfied
CC[C@@H]1/C=C/C=C/C[C@H](C)[C@H](O)[C@](C)(O)C(=O)[C@H](C)[C@@H](O)[C@H](C)C(=O)[C@H](C)[C@@H](O)[C@H](C)/C=C/C(=O)O[C@H]2[C@@H](C)[C@@H](CC1)O[C@@]1(CC[C@@H](C)[C@@H](C[C@H](C)O)O1)[C@@H]2C [Oligomycin A]	not satisfied
NC(=O)c1cc[n+](CC2=C(C(=O)O)N3C(=O)[C@@H](NC(=O)[C@@H](c4ccccc4)S(=O)(=O)[O-])[C@H]3SC2)cc1 [Cefsulodin sodium salt hydrate]	not satisfied
Cl.Nc1ccn([C@@H]2O[C@H](CO)[C@@H](O)[C@@H]2O)c(=O)n1	not satisfied
COc1cc([C@@H]2c3cc4c(cc3[C@@H](O[C@@H]3O[C@@H]5CO[C@@H](C)O[C@H]5[C@H](O)[C@H]3O)[C@H]3COC(=O)[C@H]23)OCO4)cc(OC)c1O [Etoposide (2), Etoposide]	not satisfied
CC[C@]1(O)C[C@H]2CN(CCc3c([nH]c4ccccc34)[C@@](C(=O)OC)(c3cc4c(cc3OC)N(C=O)[C@H]3[C@@](O)(C(=O)OC)[C@H](OC(C)=O)[C@]5(CC)C=CCN6CC[C@]43[C@@H]65)C2)C1 [Vincristine sulfate]	not satisfied
NNCCc1ccccc1 [Phenelzine sulfate]	satisfied
CNCCC(Oc1ccc(C(F)(F)F)cc1)c1ccccc1 (centres unmarked) [Fluoxetine hydrochloride]	satisfied
CC(CCc1ccccc1)NC(C)C(O)c1ccc(O)cc1 (centres unmarked) [Nylidrin hydrochloride]	satisfied
COc1ccc(C2CNC(=O)C2)cc1OC1CCCC1 (centres unmarked) [Rolipram]	not satisfied
N=C(N)c1ccc(OCCCCCOc2ccc(C(=N)N)cc2)cc1 [Pentamidine (32), Pentamidine, reference compound]	not satisfied
CCOC(=O)N1CCC(=C2c3ccc(Cl)cc3CCc3cccnc32)CC1 [Loratadine]	satisfied
C[C@]12C=CC(=O)C=C1CC[C@@H]1C2=CC[C@]2(C)[C@@H](C(=O)CN3CCN(c4cc(N5CCCC5)nc(N5CCCC5)n4)CC3)CC[C@@H]12.O=C(O)/C=C\C(=O)O [U-74389G maleate]	not satisfied

* * *

- Test system: murine neural precursor cells (neurosphere cultures)
- experimentSummary: HTS of LOPAC library against secondary neurosphere cultures, MTT proliferation assay at 3 μM, day 7 (z score, P value)
- Assay type: cell-based, mouse
- measurementContext: 168 h, 3 µM
Counter-ions that a name gives are not always drawn.
// classify(record): look up Z score in ranges range A = under -0.7, range B = from -0.7 up to 0.6, range C = 0.6 and over

> print(dat)
                                    compound  labelvalue
 1      NC(=O)CC[C@H](N)C(=O)O [L-Glutamine]     range C
 2  CCCCC[C@H](CC(=O)NO)C(=O)N[C@H](C(=O)N1CCC[C@H]1CO)C(C)C [Actinonin]     range A
 3  O=[N+]([O-])c1ccc(CSc2ncnc3c2ncn3[C@@H]2O[C@H](CO)[C@@H](O)[C@H]2O)cc1 [S-(4-Nitrobenzyl)-6-thioinosine]     range B
 4  N[C@@H](CC(=O)O)C(=O)O [L-Aspartic acid]     range B
 5        O=c1ccc2ccc(O)c(O)c2o1 [Daphnetin]     range A
 6  CN1CCC(=C2c3ccccc3C=Cc3ccccc32)CC1 [Cyproheptadine hydrochloride]     range C
 7                      Cl.NC1(C(=O)O)CCCCC1     range A
 8  O=c1cc(-c2ccc(O)cc2)oc2cc(O)cc(O)c12 [Apigenin]     range C
 9  CCCN(CCC)CCc1cccc2c1CC(=O)N2 [Ropinirole hydrochloride]     range B
10  OC[C@H]1NC[C@@H](O)[C@@H]1O [1,4-Dideoxy-1,4-imino-D-arabinitol]     range B
11  Nc1nc(Nc2ccccc2)nc2c1ncn2[C@@H]1O[C@H](CO)[C@@H](O)[C@H]1O [2-Phenylaminoadenosine]     range B
12  COc1ccc2c(c1)c(CC(=O)O)c(C)n2Cc1ccc(F)cc1     range B
13  CCN(CC)CCNC(=O)c1cc(Cl)c(N)cc1OC [Metoclopramide hydrochloride]     range A
14  CCCCCCCC/C=C\CCCCCCCC(=O)NCCO [N-Oleoylethanolamine]     range B
15  O=c1c2ccccc2nc2n1CCc1c-2[nH]c2ccccc12 [Rutaecarpine]     range C
16  CCCc1c(-c2ccc(O)cc2)nn(-c2ccc(O)cc2)c1-c1ccc(O)cc1     range C
17  C=CC1=C(C)c2cc3[nH]c(cc4nc(cc5[nH]c(cc1n2)c(C)c5CCC(=O)O)C(CCC(=O)O)=C4C)c(C)c3C=C [Protoporphyrin IX disodium]     range A
18  OC[C@H]1O[C@@H](n2cnc3c(NC4CCCC4)ncnc32)[C@H](O)[C@@H]1O [N6-Cyclopentyladenosine]     range A

* * *

- Test system: murine neural precursor cells (neurosphere cultures)
- experimentSummary: HTS of LOPAC library against secondary neurosphere cultures, MTT proliferation assay at 3 μM, day 7 (z score, P value)
- Assay type: cell-based, mouse
- measurementContext: LOPAC primary screen, neurosphere MTT proliferation, 3 μM, day 7
Decide by Z score: equal to or exceeding -2 means T, less means F.

compound	labelValue
CCCOc1ccccc1-c1nc2nn[nH]c2c(=O)[nH]1	F
O=C1NC(=O)C(c2ccccc2[N+](=O)[O-])=C1Nc1ccc(O)c(Cl)c1	F
CC[C@H](C)[C@H]1O[C@]2(CC[C@@H]1C)C[C@@H]1C[C@@H](C/C=C(\C)[C@@H](O[C@H]3C[C@H](OC)[C@@H](O[C@H]4C[C@H](OC)[C@@H](O)[C@H](C)O4)[C@H](C)O3)[C@@H](C)/C=C/C=C3\CO[C@@H]4[C@H](O)C(C)=C[C@@H](C(=O)O1)[C@]34O)O2	T
C1COC(NC(C2CC2)C2CC2)=N1 [Rilmenidine hemifumarate]	T
O=C(O)/C=C1\CCCc2ccccc2C1O (stereo not shown)	T
C=C[C@@]1(C)CC(=O)[C@]2(O)[C@@]3(C)[C@@H](O)CCC(C)(C)[C@@H]3[C@H](O)[C@H](OC(C)=O)[C@@]2(C)O1	T
Cl.Cl.N=C(N)c1ccc(N)cc1 [4-Aminobenzamidine dihydrochloride]	T

* * *

# Z Score listing for each entry below
- Test system: murine neural precursor cells (neurosphere cultures)
- experimentSummary: HTS of LOPAC library against secondary neurosphere cultures, MTT proliferation assay at 3 μM, day 7 (z score, P value)
- Format: cell-based, mouse
- measurementContext: 168 h, 3 µM
Where a name gives a salt, the structure may show the parent alone.
propertyLabel: Z Score

> print(dat)
                                   compound  recordedresult
1  CN(C)CCCO[C@@H]1[C@H]2OC(C)(C)O[C@H]2O[C@@H]1[C@H](O)CO [Amiprilose hydrochloride]         −0.7783
2  CC#C[C@]1(O)CC[C@H]2[C@@H]3CCC4=CC(=O)CCC4=C3[C@@H](c3ccc(N(C)C)cc3)C[C@@]21C           −1.97
3            Oc1cc(-c2ccccc2)nc2nc(Cl)ccc12          −0.401
4            N[C@@H](Cc1ccc(O)c(I)c1)C(=O)O        −0.04844
